assayed target: human ME2 enzyme (Homo sapiens, UniProt P23368)
Sequence (P23368 19-584): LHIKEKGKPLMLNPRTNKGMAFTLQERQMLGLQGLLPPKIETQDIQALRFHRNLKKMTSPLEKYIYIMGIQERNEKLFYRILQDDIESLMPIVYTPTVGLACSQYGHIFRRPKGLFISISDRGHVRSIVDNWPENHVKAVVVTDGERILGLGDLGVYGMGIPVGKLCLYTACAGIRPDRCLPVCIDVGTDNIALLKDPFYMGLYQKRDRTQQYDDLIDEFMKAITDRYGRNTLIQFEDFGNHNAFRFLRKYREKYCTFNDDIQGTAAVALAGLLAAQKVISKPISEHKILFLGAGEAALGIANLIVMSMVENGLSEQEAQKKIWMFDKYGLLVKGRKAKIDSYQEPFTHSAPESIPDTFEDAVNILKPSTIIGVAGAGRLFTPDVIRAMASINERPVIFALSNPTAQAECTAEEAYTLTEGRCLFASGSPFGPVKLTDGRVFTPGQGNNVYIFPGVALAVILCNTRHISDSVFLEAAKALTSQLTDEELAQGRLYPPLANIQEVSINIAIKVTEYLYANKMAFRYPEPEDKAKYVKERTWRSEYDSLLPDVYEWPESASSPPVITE
assay protocol: ME2 inhibition assay (diaphorase/resazurin coupled fluorescence)
Assay type: biochemical
experimental context: 10 μM compound concentration; read-out: Malic Enzyme 2 % inhibition (10 μM)
Could you please report measured inhibition at 10 µM for the items listed next?

The examples below pair each entry with its known result.
compound | reported
O=C(Cc1c[nH]c2ccc(Cl)cc12)N1CCN(c2ccc(O)cn2)CC1 [I.159] | > 90%
O=C(CCc1ccc(F)cc1F)N1CCN(c2ccc(O)cn2)CC1 [I.152] | > 90%
Cc1[nH]c2cc(Cl)c(Cl)cc2c1CC(=O)N1CCN(c2ccc(O)cn2)CC1 [I.176] | > 90%
O=C(COc1ccc(F)cc1)N1CCN(c2ccc(O)cn2)CC1 [I.164] | > 90%
O=C(N1CCN(c2ccc(O)cn2)CC1)C(O)(c1ccccc1)C1CCCCC1 (stereo not shown) [I.95] | 70 to 89%

# map each compound to its inhibition at 10 µM
1. O=C(Cc1ccccc1)N1CCN(c2ccc(O)cc2)CC1 [I.1]
2. O=C(CCc1cccs1)N1CCN(c2ccc(O)cn2)CC1 [I.116]
3. O=C(CCCc1ccccc1)N1CCN(c2ccc(O)cn2)CC1 [I.65]
4. Cc1[nH]c2ccccc2c1CC(=O)N1CCN(c2ccc(O)cn2)CC1 [I.127]
5. O=C(CCc1c2ccccc2cc2ccccc12)N1CCN(c2ccc(O)cc2)CC1 [I.53]

1. > 90%
2. > 90%
3. 70 to 89%
4. > 90%
5. > 90%

* * *

assayed target: UniProt:Q16798
Sequence (Q16798 whole entry): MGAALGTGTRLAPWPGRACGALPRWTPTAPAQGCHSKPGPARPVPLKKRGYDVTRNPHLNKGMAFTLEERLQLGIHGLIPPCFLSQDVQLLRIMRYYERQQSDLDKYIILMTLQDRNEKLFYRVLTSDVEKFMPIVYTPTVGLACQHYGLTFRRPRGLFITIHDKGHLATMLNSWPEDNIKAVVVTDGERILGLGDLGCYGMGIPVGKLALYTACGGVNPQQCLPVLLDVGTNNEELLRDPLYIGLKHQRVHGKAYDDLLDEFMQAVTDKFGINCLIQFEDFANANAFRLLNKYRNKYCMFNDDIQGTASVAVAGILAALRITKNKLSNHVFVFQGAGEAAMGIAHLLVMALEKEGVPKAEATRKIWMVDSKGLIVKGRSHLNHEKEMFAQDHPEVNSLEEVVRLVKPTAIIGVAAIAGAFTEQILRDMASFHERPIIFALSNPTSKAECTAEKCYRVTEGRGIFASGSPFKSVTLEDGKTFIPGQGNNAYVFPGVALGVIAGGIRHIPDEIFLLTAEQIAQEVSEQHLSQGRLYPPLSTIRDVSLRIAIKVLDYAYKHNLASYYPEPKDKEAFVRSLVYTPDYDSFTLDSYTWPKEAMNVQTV
assay protocol: ME3 inhibition assay (diaphorase/resazurin coupled fluorescence)
Type: biochemical
experimental context: 10 μM compound concentration; read-out: Malic Enzyme 3 % inhibition (10 μM)
property measured: inhibition at 10 µM

// below: answered molecules
molecule | property measured | reported
O=C(CC1CC1)N1CCN(c2ccc(O)cn2)CC1 [I.137] | inhibition at 10 µM | > 90%
O=C(Cc1ccccc1)N1CCN(c2ccc(O)cc2F)CC1 [I.11] | inhibition at 10 µM | > 90%
O=C(O)c1ccccc1C(=O)N1CCN(c2ccc(O)cn2)CC1 [I.111] | inhibition at 10 µM | > 90%

Please give inhibition at 10 µM for each item listed below.
1. N#Cc1cc(N2CCN(C(=O)c3cc(-c4ccccc4)nc(-c4ccccc4)c3)CC2)ccc1O [I.37]
2. O=C(CCn1cnc2ccccc21)N1CCN(c2ccc(O)cn2)CC1 [I.136]
3. O=C(Cc1c[nH]c2cc(F)c(F)cc12)N1CCN(c2ccc(O)cn2)CC1 [I.160]
4. O=C(c1n[nH]c2ccccc12)N1CCN(c2ccc(O)cc2)CC1 [I.8]
5. O=C(C1CCCCC1)N1CCN(c2ccc(O)cn2)CC1 [I.118]

["50 to 69%", "> 90%", "> 90%", "> 90%", "> 90%"]

Batch request: inhibition at 10 µM for each of the following molecules.
1. O=C(Cc1c[nH]c2ccc(Cl)cc12)N1CCN(c2ccc(O)cn2)CC1 [I.159]
2. O=C(c1cccn2ccnc12)N1CCN(c2ccc(O)cc2)CC1 [I.29]
3. O=C(c1c[nH]c2ccccc2c1=O)N1CCN(c2ccc(O)cn2)CC1 [I.54]
4. O=C(C(c1ccccc1)N1CCOCC1)N1CCN(c2ccc(O)cn2)CC1 (centres unmarked) [I.117]
5. O=C(c1cc2ccccc2oc1=O)N1CCN(c2ccc(O)cn2)CC1 [I.73]
6. O=C(Cc1c[nH]c2ccc(F)cc12)N1CCN(c2ccc(O)cc2)CC1 [I.150]

1. > 90%
2. > 90%
3. > 90%
4. > 90%
5. > 90%
6. > 90%

* * *

assayed target: human ME2 enzyme (Homo sapiens)
assay protocol: ME2 inhibition assay (diaphorase/resazurin coupled fluorescence)
Type: biochemical
experimental context: 10 μM compound concentration; read-out: Malic Enzyme 2 % inhibition (10 μM)
property measured: inhibition at 10 µM

Worked set:
compound | inhibition at 10 µM
Cc1cccc(Cl)c1C(=O)N1CCN(c2ccc(O)cn2)CC1 | > 90%
O=C(C=C1c2ccccc2-c2ccccc21)N1CCN(c2ccc(O)cn2)CC1 | 70 to 89%
O=C(CCc1ccncc1)N1CCN(c2ccc(O)cn2)CC1 | 70 to 89%
O=C(CNCC12CC3CC(CC(C3)C1)C2)N1CCN(c2ccc(O)cn2)CC1 | 70 to 89%
O=C(CC12CC3CC(CC(C3)C1)C2)N1CCN(c2ccc(O)cn2)CC1 | 70 to 89%
Cc1cc(F)ccc1CCC(=O)N1CCN(c2ccc(O)cn2)CC1 | > 90%
O=C(Cc1c[nH]c2c(F)cc(F)cc12)N1CCN(c2ccc(O)cn2)CC1 | > 90%
Cc1ccccc1CCC(=O)N1CCN(c2ccc(O)cn2)CC1 | > 90%

Parameter requested: inhibition at 10 µM. Apply to each item below.
1. O=C(Cc1cc(F)c(F)c(F)c1)N1CCN(c2ccc(O)cc2)CC1
2. O=C(CCn1cnc2ccccc21)N1CCN(c2ccc(O)cn2)CC1
3. O=C(CCc1c(F)cccc1F)N1CCN(c2ccc(O)cn2)CC1
4. Cc1cccc(Cl)c1C(=O)N1CCN(c2ccc(O)cc2)CC1

> 90%
> 90%
> 90%
> 90%

Count: 5. Required value per item: inhibition at 10 µM.
1. COCCOc1ccc(CC(=O)N2CCN(c3ccc(O)cc3)CC2)cc1
2. Cn1cc(C(=O)N2CCN(c3ccc(O)cn3)CC2)c(=O)c2ccccc21
3. O=C(CC(O)c1ccccc1)N1CCN(c2ccc(O)cn2)CC1 (stereo not drawn)
4. O=C(Cc1ccccc1)N1CCN(c2ccc(O)cc2F)CC1
5. O=C(C1Cc2ccccc2C1)N1CCN(c2ccc(O)cn2)CC1

["> 90%", "70 to 89%", "> 90%", "70 to 89%", "50 to 69%"]

* * *

assayed target: human ME2 enzyme (Homo sapiens)
assay protocol: ME2 inhibition assay (diaphorase/resazurin coupled fluorescence)
Format: biochemical
experimental context: 10 μM compound concentration; read-out: Malic Enzyme 2 % inhibition (10 μM)
property measured: inhibition at 10 µM

Consider the worked cases shown below.
compound | inhibition at 10 µM
O=C(c1c2ccccc2cc2ccccc12)N1CCN(c2ccc(O)cc2)CC1 | > 90%
O=C(c1c[nH]c2ccc(F)cc12)N1CCN(c2ccc(O)cn2)CC1 | > 90%
O=C(C1CCCc2ccccc21)N1CCN(c2ccc(O)cn2)CC1 (stereo not shown) | > 90%
O=C(CC1CC1)N1CCN(c2ccc(O)cn2)CC1 | > 90%
O=C(CCc1cc(F)c(F)c(F)c1)N1CCN(c2ccc(O)cn2)CC1 | > 90%
O=C(C(=O)N1CCN(c2ccc(O)cn2)CC1)c1c[nH]c2ccc(F)cc12 | > 90%
O=C(c1cc2ccccc2oc1=O)N1CCN(c2ccc(O)cn2)CC1 | 70 to 89%
O=C(Cc1ccc(F)cc1F)N1CCN(c2ccc(O)cc2)CC1 | > 90%
O=C(CCC1CC1)N1CCN(c2ccc(O)cn2)CC1 | > 90%

# ---- query compound ----
Given Cn1cc(C(=O)N2CCN(c3ccc(O)cn3)CC2)c2ccccc21 , state its recorded inhibition at 10 µM. 70 to 89%

* * *

Give measured inhibition at 10 µM for each item. Keep answers brief.
assayed target: human ME1 enzyme (Homo sapiens, UniProt P48163)
Sequence (P48163 whole entry): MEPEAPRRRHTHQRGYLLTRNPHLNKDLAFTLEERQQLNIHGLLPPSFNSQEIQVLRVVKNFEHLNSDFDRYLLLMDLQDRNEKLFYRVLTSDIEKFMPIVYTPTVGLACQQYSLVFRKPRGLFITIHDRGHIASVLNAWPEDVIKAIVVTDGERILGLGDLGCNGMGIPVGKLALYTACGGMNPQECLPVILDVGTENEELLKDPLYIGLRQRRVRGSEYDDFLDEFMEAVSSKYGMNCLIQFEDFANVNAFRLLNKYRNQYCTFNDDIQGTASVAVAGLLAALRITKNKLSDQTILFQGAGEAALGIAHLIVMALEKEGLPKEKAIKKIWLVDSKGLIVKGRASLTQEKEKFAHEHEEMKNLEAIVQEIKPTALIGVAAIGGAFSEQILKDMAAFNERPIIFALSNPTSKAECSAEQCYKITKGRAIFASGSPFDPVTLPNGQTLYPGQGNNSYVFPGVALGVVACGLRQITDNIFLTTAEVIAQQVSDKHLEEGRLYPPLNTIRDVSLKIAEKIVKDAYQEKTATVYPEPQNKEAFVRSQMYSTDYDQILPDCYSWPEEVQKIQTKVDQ
assay protocol: ME1 inhibition assay (diaphorase/resazurin coupled fluorescence)
Type: biochemical
experimental context: 10 μM compound concentration; read-out: Malic Enzyme 1 % inhibition (10 μM)

Below: 8 molecules and their reported inhibition at 10 µM.
molecule | reported
O=C(C(c1ccc(Cl)cc1)c1ccc(Cl)cc1)N1CCN(c2ccc(O)cn2)CC1 [I.58] | 70 to 89%
COc1ccc(C(CC(=O)N2CCN(c3ccc(O)cn3)CC2)c2ccc(OC)cc2)cc1 [I.93] | 70 to 89%
CC(C)(CC(=O)N1CCN(c2ccc(O)cn2)CC1)c1ccc(F)cc1 [I.161] | > 90%
O=C(CCc1cccc(C(F)(F)F)c1)N1CCN(c2ccc(O)cn2)CC1 [I.72] | > 90%
O=C(CCc1c(F)cccc1F)N1CCN(c2ccc(O)cn2)CC1 [I.157] | > 90%
O=C(c1cn(CC2CC2)c2ccccc2c1=O)N1CCN(c2ccc(O)cn2)CC1 [I.59] | 70 to 89%
O=C(CCc1cccc(F)c1)N1CCN(c2ccc(O)cn2)CC1 [I.92] | > 90%
O=C(C1CCCc2ccccc21)N1CCN(c2ccc(O)cn2)CC1 (stereo not drawn) [I.132] | 70 to 89%

Kindly give each listed record's inhibition at 10 µM.
1. O=C(CC(c1ccccc1)c1ccccc1)N1CCN(c2ccc(O)cn2)CC1 [I.75]
2. Cc1cccc(Cl)c1C(=O)N1CCN(c2ccc(O)cc2)CC1 [I.154]
3. O=C(c1cc2cc(F)ccc2[nH]1)N1CCN(c2ccc(O)cn2)CC1 [I.88]
4. O=C([C@@H]1C[C@H]1c1ccccc1)N1CCN(c2ccc(O)cn2)CC1 (stereo in doubt) [I.133]
5. O=C(Cc1c[nH]c2cc(F)c(F)cc12)N1CCN(c2ccc(O)cn2)CC1 [I.160]
6. O=C(CSc1ccccc1Br)N1CCN(c2ccc(O)cn2)CC1 [I.143]
7. O=C(c1ccc(-c2ccccc2)s1)N1CCN(c2ccc(O)cn2)CC1 [I.123]

["> 90%", "> 90%", "> 90%", "> 90%", "> 90%", "> 90%", "70 to 89%"]

Need inhibition at 10 µM for each of these molecules.
1. O=C(O)CCCC(=O)N1CCN(c2ccc(O)cn2)CC1 [I.70]
2. O=C(c1c2ccccc2cc2ccccc12)N1CCN(c2ccc(O)cc2)CC1 [I.21]

1: 70 to 89%; 2: > 90%
